test system: Helicobacter pylori; assay: Evaluated for antimicrobial activity against Helicobacter pylori; assay type: functional
This section presents compounds with their documented MIC values.
quantity name: MIC

entry smiles	quantity name	recorded result
CC(=O)NCc1ccc(-c2csc(CN(C)C)n2)o1	MIC	> 200 µg/mL
CCCCNC(=O)Nc1nc(-c2ccc(CNC(C)=O)o2)cs1	MIC	> 100 µg/mL
CC(=O)NCc1ccc(-c2csc(NC3=NCCN3)n2)o1	MIC	> 100 µg/mL
CC(=O)NCc1ccc(-c2csc(/N=C(\N)S)n2)o1	MIC	> 200 µg/mL

These data points were gathered from ChEMBL document CHEMBL1130326.
